- System: Mycobacterium tuberculosis
- method.description: Cornell - Phenotypic assay to identify agents that inhibit growth of Mycobacterium tuberculosis
- Type: functional
- Parameters: scale not given: direction of the effect not stated beside the values
- measurement.context: 10 mM as filed; unlikely as a test dose
Out of some 53,000 compounds screened, about 900 (1.7%) showed an effect of 50% or more. Many of the other results were omitted from the sample, so strong results are more common in it than they were.
reported.property: Percent Effect (%)
One number for each entry, in %.

Some solved entries appear below for comparison.
compound | system | Percent Effect (%)
Cc1nn(C)c(Oc2ccccc2)c1CNC1CCCCNC1=O (configuration not stated) | Mycobacterium tuberculosis | -7.334
Cc1nn(C)c(N(C)C)c1CNC1CCCCNC1=O (configuration not stated) | Mycobacterium tuberculosis | 63.11
CCc1cnc(CN(C)C2CCN(Cc3nnc(C4CC4)n3C)C2)o1 (configuration not stated) | Mycobacterium tuberculosis | 31.65
O=c1n(Cc2ccc(F)cc2)nc2ncccn12 | Mycobacterium tuberculosis | -16.62
COCCN1CCC(NCc2c(C(C)C)nn(C)c2N(C)C)CC1 | Mycobacterium tuberculosis | 39.85
CC(C)c1nn(C)c(N(C)C)c1CNC1CCN(C2CC2)CC1.Cl | Mycobacterium tuberculosis | 42.5
CC(C)c1nn(C)c(N(C)C)c1CNC1CCC(O)CC1 (configuration not stated) | Mycobacterium tuberculosis | 21.48
Cc1nn(C)cc1C(=O)NCc1csc(C2CC2)n1 | Mycobacterium tuberculosis | 0.3942

Go through the items and report each one's Percent Effect.
1. CCn1cc(C(=O)NCc2csc(C3CC3)n2)c(C)n1
2. CC(=O)N1CCC(c2ncc(C(=O)Nc3ccccc3)c(C)n2)CC1
3. CC(C)C(=O)N1CCC(NCc2c(C(C)C)nn(C)c2N(C)C)CC1
4. Cc1nn(C)c(N2CCOCC2)c1CNC1CCCCNC1=O (configuration not stated)

Key:
1: 26.12; 2: 16.5; 3: 31.79; 4: -11.46

====

Please go through the items and note down their Percent Effect.
- Test system: Mycobacterium tuberculosis
- method.description: Cornell - Phenotypic assay to identify agents that inhibit growth of Mycobacterium tuberculosis
- Format: functional
- Set-up: scale not given: direction of the effect not stated beside the values
- measurement.context: 10 mM as filed; unlikely as a test dose
The campaign covered roughly 53,000 compounds. About 900 (1.7%) showed an effect of 50% or more. Many of the other results were omitted from the sample, so strong results are more common in it than they were.
Give bare numbers, in %.

compound | u | Percent Effect
Cc1nc2ccnn2c(C)c1CCC(=O)N1CCN2CCCCC2C1 (stereo unspecified) | % | -1.576
O=C(NCCOc1ccccc1)NCC(O)c1cccs1 (stereo unspecified) | % | 1.907
Cc1nn(C)c(C)c1CNC1CCOc2ccccc21 (stereo unspecified) | % | 106.6

Go through the items and report each one's Percent Effect.
1. Cc1cc(C(F)(F)F)nc(CNc2cc(C)nc3cc(C)nn23)n1
2. COc1c(CNC2CCOc3ccccc32)c(C)nn1C (stereo unspecified)
3. Cc1nn(CCO)c(C)c1CNC1CCOc2ccccc21.Cl (stereo unspecified)

Key:
1. 13.97
2. 23.56
3. 28.69

====

Please go through the items and note down their Percent Effect.
- Tested on: Mycobacterium tuberculosis
- method.description: Cornell - Phenotypic assay to identify agents that inhibit growth of Mycobacterium tuberculosis
- Type: functional
- Set-up: scale not given: direction of the effect not stated beside the values
- measurement.context: 10 mM as filed; unlikely as a test dose
Hit rate of the full screen: of about 53,000 compounds, about 900 (1.7%) showed an effect of 50% or more. The sample as a whole holds a higher share of strong results than the screen did.
Answers are plain numbers, in %.

Some solved entries appear below for comparison.
compound | u | test.result
CN(C)C(=O)N1C[C@@H]2CC[C@H](C1)N(C(=O)c1c(Cl)cccc1Cl)C2 | % | 3.535
Cc1nc(C)n(CC2CCCN(c3ncnc4sccc34)C2)n1 (stereo unspecified) | % | -6.342
CCN(Cc1ccc2c(c1)OCCO2)S(=O)(=O)N(C)C(C)C | % | 54.92
CC(C)N(C)S(=O)(=O)N(C)Cc1ccc2c(c1)OCO2 | % | -6.095
Cc1nc(C)n(CC2CCCN(c3ncnc4ccccc34)C2)n1 (stereo unspecified) | % | -29.18

Exercise: Please look up its Percent Effect: O=C(NC(Cc1ccsc1)c1nccs1)C1CC1 (stereo unspecified)
Key: 1.52

====

Please go through the items and note down their Percent Effect.
- System: Mycobacterium tuberculosis
- method.description: Cornell - Phenotypic assay to identify agents that inhibit growth of Mycobacterium tuberculosis
- Type: functional
- Parameters: scale not given: direction of the effect not stated beside the values
- measurement.context: 10 mM as filed; unlikely as a test dose
In all, about 53,000 compounds went through this assay and about 900 (1.7%) showed an effect of 50% or more. The entries come from a sample that favours strong results as a whole.
One number for each entry, in %.

Some solved entries appear below for comparison.
compound | system | Percent Effect [%]
CCSCCNc1nc(-c2ccccn2)nc2c1c(C)nn2C | Mycobacterium tuberculosis | 51.67
CN(C)C(=O)C1(C)CN(Cc2cn(C)c3ccc(F)cc23)CCO1 (configuration not stated) | Mycobacterium tuberculosis | 20.08
CCN1CCN(C(=O)NCc2cccnc2-n2cccn2)CC1 | Mycobacterium tuberculosis | -23.25

Go through the items and report each one's Percent Effect.
1. CNC(=O)C1(C)CN(Cc2cn(C)c3ccc(F)cc23)CCO1 (configuration not stated)
2. COCCN1CCCC(c2nc(C)n3c(C)c(C)sc23)C1 (configuration not stated)
3. CN(C)C(=O)c1cncnc1-c1ccc(CNC(=O)C2CC2)cc1
4. Cn1ccc(C(=O)Nc2nccn2Cc2ccccc2Cl)cc1=O
5. c1cc(CN2CCC(Cc3noc(C4CC4)n3)CC2)c2c(c1)OCO2
6. C[C@@H]1CN(c2nc3c(cc2C(N)=O)CCC3)CC[C@@]1(O)C1CCC1

Key:
1. 75.75
2. 6.759
3. 37.26
4. 51.57
5. 11.43
6. 6.158

====

- Test system: Mycobacterium tuberculosis
- method.description: Cornell - Phenotypic assay to identify agents that inhibit growth of Mycobacterium tuberculosis
- Assay type: functional
- Design: scale not given: direction of the effect not stated beside the values
- measurement.context: 10 mM as filed; unlikely as a test dose
Out of some 53,000 compounds screened, about 900 (1.7%) showed an effect of 50% or more. What follows is part of a selection rich in strong results, with near analogues and random picks from the rest.
Please go through the items and note down their Percent Effect.
Answers are plain numbers, in %.

compound | Percent Effect, %
O=C(NCCC(=O)N1CCCC1)c1ccc(SCc2cccnc2)cc1 | 35.93

Go through the items and report each one's Percent Effect.
1. Cc1cc(-c2ccc(=O)n(CCNC(=O)C3CCCCC3)n2)c(C)o1
2. CCC(C)NC(=O)Nc1cccc(OC)c1 (stereo unspecified)
3. Cl.O=C(NCCn1nc(C2CCNC2)c2cccnc21)C1CC1 (stereo unspecified)
4. Cc1nc(C(C)N2Cc3ncccc3C2=O)cs1 (stereo unspecified)
5. CNCc1cc(F)ccc1Oc1ccc(Cl)cc1
6. CNC(=O)C1Cn2ccnc2C2(CCN(C(=O)NC3CCCC3)CC2)O1 (stereo unspecified)
7. O=C(O)C(F)(F)F.O=C(O)C(F)(F)F.O=C(O)C(F)(F)F.c1cc(CNCC2OCCc3cn(CC4CCOCC4)nc32)ccn1 (stereo unspecified)
8. COc1ccc(N2CCN(C(=O)C3CN(C)C(=O)N3)CC2(C)C)cc1 (stereo unspecified)

Key:
1: 6.455; 2: -23.11; 3: -8.257; 4: 12.56; 5: -16.87; 6: 14.23; 7: -7.498; 8: 2.102

====

- System: Mycobacterium tuberculosis
- method.description: Cornell - Phenotypic assay to identify agents that inhibit growth of Mycobacterium tuberculosis
- Assay type: functional
- Parameters: scale not given: direction of the effect not stated beside the values
- measurement.context: 10 mM as filed; unlikely as a test dose
About 900 (1.7%) of roughly 53,000 compounds showed an effect of 50% or more. The list comes from a sample in which strong results are over-represented; it also holds close analogues and randomly drawn compounds.
reported.property: Percent Effect (%)
Give bare numbers, in %.

Go through the items and report each one's Percent Effect.
1. CC(c1nc(C(C)(C)C)no1)N1CCN(C(=O)CN2CCOCC2)CC1 (configuration not stated)
2. Cc1cc(CN2CCN(C(C)c3nc(C(C)C)no3)CC2)no1 (configuration not stated)
3. c1cnnc(N2CCCC2CNCc2nc3ccccc3o2)c1 (configuration not stated)
4. O=C(NC1CCCc2c1[nH]c1ccc(F)cc21)c1n[nH]c2c1CCC2 (configuration not stated)
5. CCCn1cc(C(=O)N2CCCC(Cc3nccs3)C2)cn1 (configuration not stated)
6. CNc1cc(C2CCCN2C(=O)c2ccc(=O)[nH]n2)ccn1.O=CO (configuration not stated)
7. CCC(=O)N1CCCCC1c1nc(O)c2c(n1)CN(S(=O)(=O)CC)CC2 (configuration not stated)
8. CN(Cc1nc2ccccc2o1)CC1CCCN1c1cccnn1 (configuration not stated)

Key:
[8.353, -1.591, 108.2, 5.755, -22.26, 2.671, 9.253, -25.78]
